Test system: HCT-116
experiment_description: cells
applied_conditions: Homo sapiens, HCT-116, 72 h
Description: Antiproliferative activity against human HCT116 cells assessed as cell viability after 72 hrs by MTT assay
assay_metric: IC50 (µM)

(I) COc1cc([C@@H]2c3cc4c(cc3[C@@H](Nc3ccc(OCCCCC(=O)NO)cc3)[C@H]3COC(=O)[C@H]23)OCO4)cc(OC)c1O
(II) COc1cc([C@@H]2c3cc4c(cc3[C@@H](Nc3ccccc3OCCCC(=O)NO)[C@H]3COC(=O)[C@H]23)OCO4)cc(OC)c1O
Query: For this pair, I and II , which shows a numerically higher IC50? Your answer should be the label of the entry you select.
Reply: II

---

assay_system: Protein deacetylase HDAC6 (Homo sapiens, UniProt Q9UBN7)
Sequence (Q9UBN7 whole entry): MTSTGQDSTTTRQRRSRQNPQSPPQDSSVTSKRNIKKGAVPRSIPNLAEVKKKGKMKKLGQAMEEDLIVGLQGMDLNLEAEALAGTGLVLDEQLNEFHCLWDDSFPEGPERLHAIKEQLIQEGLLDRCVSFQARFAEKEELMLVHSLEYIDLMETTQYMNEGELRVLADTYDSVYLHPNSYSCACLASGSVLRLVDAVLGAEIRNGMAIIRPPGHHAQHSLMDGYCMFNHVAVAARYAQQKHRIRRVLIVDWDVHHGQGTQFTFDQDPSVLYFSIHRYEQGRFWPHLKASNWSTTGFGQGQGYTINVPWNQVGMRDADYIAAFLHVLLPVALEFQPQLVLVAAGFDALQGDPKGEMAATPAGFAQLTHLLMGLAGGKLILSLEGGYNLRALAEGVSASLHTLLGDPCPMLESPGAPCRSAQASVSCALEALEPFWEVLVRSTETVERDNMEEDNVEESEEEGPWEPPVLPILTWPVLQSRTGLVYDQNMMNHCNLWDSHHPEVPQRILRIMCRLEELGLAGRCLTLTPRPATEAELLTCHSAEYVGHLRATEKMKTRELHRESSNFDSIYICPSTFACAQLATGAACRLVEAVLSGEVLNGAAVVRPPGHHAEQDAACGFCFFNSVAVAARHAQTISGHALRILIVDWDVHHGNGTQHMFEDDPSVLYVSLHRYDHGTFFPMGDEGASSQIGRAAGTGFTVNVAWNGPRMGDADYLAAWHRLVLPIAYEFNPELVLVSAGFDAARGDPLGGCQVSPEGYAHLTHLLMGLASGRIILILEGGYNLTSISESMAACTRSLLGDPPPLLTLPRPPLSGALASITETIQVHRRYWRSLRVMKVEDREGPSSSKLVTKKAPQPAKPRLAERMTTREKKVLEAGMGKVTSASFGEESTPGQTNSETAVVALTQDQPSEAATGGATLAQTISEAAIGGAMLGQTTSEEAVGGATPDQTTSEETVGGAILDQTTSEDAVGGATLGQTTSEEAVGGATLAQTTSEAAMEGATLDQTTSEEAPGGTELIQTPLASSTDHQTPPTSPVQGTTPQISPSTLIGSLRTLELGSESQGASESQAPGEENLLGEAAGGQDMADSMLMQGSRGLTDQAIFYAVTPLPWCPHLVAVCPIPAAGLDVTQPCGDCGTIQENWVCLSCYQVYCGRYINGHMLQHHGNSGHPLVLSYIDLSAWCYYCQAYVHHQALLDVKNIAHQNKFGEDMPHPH
experiment_description: Inhibition of human recombinant HDAC6 expressed in baculovirus infected insect high5 cells using Boc-Lys (epsilon-acetyl)-AM) as substrate after 3 to 24 hrs by fluorescence assay
assay_metric: IC50 (nM)

(A) COc1cc([C@@H]2c3cc4c(cc3[C@@H](Nc3cccc(OCCCCCCCC(=O)NO)c3)[C@H]3COC(=O)[C@H]23)OCO4)cc(OC)c1O
(B) COc1cc([C@@H]2c3cc4c(cc3[C@@H](Nc3ccc(NC(=O)CCCCCC(=O)NO)cc3)[C@H]3COC(=O)[C@H]23)OCO4)cc(OC)c1O
(C) COc1cc([C@@H]2c3cc4c(cc3[C@@H](Nc3cccc(OCCCCCCC(=O)NO)c3)[C@H]3COC(=O)[C@H]23)OCO4)cc(OC)c1O
Query: Rank descending by IC50: all 3 compounds from above. I'd appreciate it if you listed the labels in the requested order.
Reply: B, A, C
(B: 130 nM, A: 69 nM, C: 5.6 nM)
